Recorded protein stability index by entry
B1: LPCAT4 (parent)
chain: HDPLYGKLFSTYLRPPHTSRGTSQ

- Variants of: B1
- test method notes: protein stability index of a GFP-peptide fusion (GPS, HEK-293T) (PSI 1-6); higher = more stable;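 also: lentivirally expressed fusions sorted by FACS into six bins by GFP to DsRed ratio, PSI derived from sequencing read proportions per bin multiplied by bin number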
- condition set: c terminus: a fixed tail appended
Enter the number alone.

R20A | 2.78
H17C | 2.7
T11D | 3.46
S19W | 1.95
T22K | 2.61
T22G | 2.75
P3H | 2.98
H17N | 2.59
H17W | 2.19
S23E | 2.64

Let us move to another entry and its protein stability index.
Name the recorded protein stability index for `S23H` .
2.73
